# System: SF-539 CNS
# method-description: NCI tumour cell line growth inhibition, 48 h
Assign t to entries whose TGI meets or exceeds 8 µM; assign f to the rest.

compound | qualitative-label
COc1cc(-c2cc(-c3ccc(Nc4ccnc5cc(Cl)ccc45)cc3)nc(N3CCOCC3)n2)cc(OC)c1OC | f
COc1cc(OC)c2nccc(NCCCN(C)C)c2c1[N+](=O)[O-] | t
CCCC(O)c1cn(C(NC(=O)c2ccccc2)P(=O)(OCC)OCC)nn1 (stereo not given) | t
CCCC(C)n1c(C)nc2c1C(=O)c1ccccc1C2=O (stereo not given) | t
O=C1c2ccccc2C(=O)c2c(O)c(NCCCNCCO)cc(O)c21 | t
CNC(=S)N/N=C(\C(=N/NC(=S)NC)c1ccccn1)c1ccccn1 | t
S=c1nc(COc2ccc(Cl)cc2Cl)[nH][nH]1 | t
c1ccc(CN[C@]23C4C5CC6C7C5C2C7[C@@](NCc2ccccc2)(C64)N3Cc2ccccc2)cc1 (stereo not given in full) | t
Cc1cc2cc3ccc(N(C)C)cc3nc2cc1N | f

---

Below is a list of entries, each paired with its recorded TGI value.
# Test system: HOP-62 NSCLC
# method-description: NCI tumour cell line growth inhibition, 48 h
measure-name: TGI (µM)

molecule | measure-name | value-prefix | reading
CCOC(=O)c1c(Br)c(-c2ccc(OC)cc2)c(Br)n1C | TGI | = | 39.7
CN(CCO)CCCC1COc2ccccc2O1 (stereo not given) | TGI | > | 100
COc1ccc(/C=c2\sc3n(c2=O)C2C(NN=3)N(C)C(=O)N2C)cc1 (stereo not given) | TGI | > | 100
O=C(O)C1CCCCC1c1c2ccc(=O)c(O)c-2oc2c(O)c(O)ccc12 (stereo not given) | TGI | = | 94.4
O=[N+]([O-])c1ccc(C2CC(c3ccccc3Cl)=Nc3ccccc3S2=O)cc1 (stereo not given) | TGI | = | 23.4
O=[N+]([O-])c1ccc(Oc2nc(Nc3ccc(O[C@H]4CO[C@H]5[C@@H]4OC[C@@H]5O)c(Cl)c3)ncc2F)c(Cl)c1 | TGI | = | 4.65
Brc1ccc2[nH]cc(-c3nc(-c4c[nH]c5ncccc45)cs3)c2c1 | TGI | = | 17
O=C(NCCO)c1ccc([N+](=O)[O-])cc1 | TGI | > | 100
NC(=O)c1c([N+](=O)[O-])cc(C(F)(F)F)cc1[N+](=O)[O-] | TGI | > | 100
Clc1ccc(-c2csc(Nc3cccc(-c4csc(-c5ccccc5)n4)c3)n2)cc1 | TGI | = | 22.8

---

# System: HCT-15 colon
# method-description: NCI tumour cell line growth inhibition, 48 h

compound | TGI
O=C(NC1CCCCC1)c1cc2ccccc2cc1O | 65.1 µM
O=C(O)C[C@@H]1[C@@H](O)[C@@H](O)CN2C(=O)c3ccccc3[C@H]12 | > 100 µM
O=c1cc(-c2c[nH]c3ccccc23)[nH]c2cc3c(cc12)OCO3 | > 100 µM
C(=N\Nc1ccc(-c2nc3ccccc3[nH]2)cc1)/c1c(-c2ccc(Cc3ccccc3)cc2)[nH]c2ccccc12 | > 100 µM
CCO[C@@]1(COCc2ccccc2)OC(=O)C[C@@H]1N1C(=O)OC[C@@H]1c1ccccc1 | > 100 µM
CCN(CC)c1ccc(N=Nc2ccc([N+](=O)[O-])cc2OC(=O)/C=C/c2ccccc2)c(OC(=O)/C=C/c2ccccc2)c1 | > 100 µM
Nc1nc(N)c(C=Nc2ccc(Br)cc2)c(Nc2ccc(Br)cc2)n1 | 34.4 µM
O=C1C=CC(=C(c2ccc(O)cc2)c2ccc(O)cc2)C=C1 | 28.6 µM
CCOP(=O)(OCC)C(c1ccccc1)N(C(=O)NC(F)(F)F)c1cccc(F)c1 (stereo unspecified) | > 100 µM
CN(Cc1cccc(F)c1)c1ccc(CO)c(Cl)c1 | > 83.2 µM
Fc1ccc(N=C/C=C/Nc2ccc(F)cc2)cc1 | 15.2 µM
COc1cc(C2=NNC(=O)c3ccccc3N2c2nc(-c3cccs3)nc3ccc(Br)cc23)cc(OC)c1OC | 24 µM
O=C(NCCO)c1ccc([N+](=O)[O-])cc1 | > 100 µM
COc1ccc(C(c2ccc(OCCN(C)C)cc2)c2cc3ccccc3c3ccccc23)cc1 (stereo unspecified) | 2.69 µM
COc1cc(-c2cc(-c3ccc(Nc4ccnc5cc(Cl)ccc45)cc3)nc(N3CCOCC3)n2)cc(OC)c1OC | 3.58 µM
COC(=O)[C@H]1NC(=O)CCSSC1(C)C | > 100 µM
O=C1NC(=O)C(=Nc2cccc3c(=O)[nH][nH]c(=O)c23)C(c2nc3ccccc3s2)C1=O (stereo unspecified) | > 100 µM
COc1cc(CNc2cnc3cc(N)ccc3n2)cc(OC)c1OC | > 100 µM
CCn1c(SC(C)C(=O)c2c(C)n(C)n(-c3ccccc3)c2=O)nc2ccccc2c1=O (stereo unspecified) | > 100 µM
O=c1sc2c(s1)-c1sc(=O)sc1SS2 | > 31.6 µM
O=[N+]([O-])c1ccc(C(Nc2ccccc2)P(c2ccccc2)c2ccccc2)cc1 (stereo unspecified) | > 100 µM
